# assay_system: Pry1 (Saccharomyces cerevisiae, UniProt P47032)
# Construct: made in house; host or cells: E. coli BL21
# Sequence (P47032 20-299): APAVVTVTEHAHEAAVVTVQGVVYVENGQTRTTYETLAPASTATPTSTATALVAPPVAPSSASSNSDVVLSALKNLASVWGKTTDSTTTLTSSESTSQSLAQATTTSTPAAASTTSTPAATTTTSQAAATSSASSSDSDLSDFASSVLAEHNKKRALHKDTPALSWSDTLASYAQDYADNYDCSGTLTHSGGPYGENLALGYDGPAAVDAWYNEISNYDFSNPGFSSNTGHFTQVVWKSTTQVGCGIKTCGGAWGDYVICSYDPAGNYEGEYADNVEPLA
# measurement_description: Microscale thermophoresis (MST) ligand binding
# condition_details: Pry1, pH 7.5, 50 nM protein
# Procedure: This polyhistidine-tagged protein is site-specific fluorescently labeled (RED-tris-NTA, green star). The labeled protein is incubated with varying concentrations of ligand, loaded into glass capillaries, the capillaries are locally heated with an infrared (IR) laser, generating a temperature gradient, and the rate of temperature-induced diffusion of the ligand-bound protein was recorded and plotted as a function of ligand concentration. […]
Structures can show the parent of a compound that is named as a salt.
measured_property: pKd
Reminder that pKd is minus the log10 of a molar concentration.

Query string: Report pKd for CC(C)CCC[C@@H](C)[C@H]1CC[C@H]2[C@@H]3CC=C4C[C@@H](OS(=O)(=O)O)CC[C@]4(C)[C@H]3CC[C@]12C [cholesterol sulfate] please.
Result string: 5.76
